- target-desc: HLA-B*44:03
- assay-comment: IEDB peptide-MHC binding, purified MHC/competitive/radioactivity; bounds were set here for any values at or beyond the usual limits of such assays
- condition-context: source organism: Bordetella pertussis
pIC50: −log10 of the molar value.

monomer-sequence | pIC50
YEDATFETY | 5.43
EVDGIIQEF | 4.80
VEASAITTY | 5.71
ANEANALLW | 5.04

====

- target-desc: HLA-B*07:02
- assay-comment: IEDB peptide-MHC binding, purified MHC/competitive/radioactivity; bounds were set here for any values at or beyond the usual limits of such assays
- condition-context: source organism: Bordetella pertussis
pIC50: −log10 of the molar value.
value-kind: pIC50

monomer-sequence | target-desc | value-kind | assay-result
PPRPVVAEK | HLA-B*07:02 | pIC50 | 4.16
